# TARGET_OR_SYSTEM: human CD73 (Homo sapiens, UniProt P21589)
# ASSAY_SUMMARY: Inhibitor activity against CD73 in cell based assay (CD73 expressing CHO-K1 cells)
# RUN_CONDITIONS: CHO-K1 cells expressing human CD73, 150 μM AMP, 4 hours of incubation; read-out: CHO-K1 CELL VARIANT: CD73 IC50
pIC50: −log10 of the molar value.
PROPERTY_LABEL: pIC50

Form field: reported pIC50 of COC(=O)[C@H]1CC[C@@H](NC(=O)O[C@@H]2CCN(c3cn[nH]c(=O)c3Cl)C2)CC1
5.00 to 9.00

====

# TARGET_OR_SYSTEM: human CD73 (Homo sapiens, UniProt P21589)
# Sequence (P21589 27-549): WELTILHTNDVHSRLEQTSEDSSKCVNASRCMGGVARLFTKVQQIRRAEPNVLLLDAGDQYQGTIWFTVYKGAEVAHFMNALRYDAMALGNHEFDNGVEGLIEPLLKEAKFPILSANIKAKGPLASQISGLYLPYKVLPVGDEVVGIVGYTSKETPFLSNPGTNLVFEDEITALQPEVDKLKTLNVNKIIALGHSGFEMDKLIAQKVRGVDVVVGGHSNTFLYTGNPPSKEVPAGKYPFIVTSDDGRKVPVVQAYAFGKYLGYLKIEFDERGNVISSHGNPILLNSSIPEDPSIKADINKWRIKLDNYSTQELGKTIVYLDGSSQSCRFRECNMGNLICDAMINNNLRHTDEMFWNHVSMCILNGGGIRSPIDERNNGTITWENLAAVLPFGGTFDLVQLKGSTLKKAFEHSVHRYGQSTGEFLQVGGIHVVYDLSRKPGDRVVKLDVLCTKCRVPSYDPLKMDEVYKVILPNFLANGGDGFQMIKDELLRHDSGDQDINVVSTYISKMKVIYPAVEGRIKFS
# ASSAY_SUMMARY: Inhibitor activity against CD73 in cell based assay (CD73 expressing CHO-K1 cells)
# RUN_CONDITIONS: CHO-K1 cells expressing human CD73, 150 μM AMP, 4 hours of incubation; read-out: CHO-K1 CELL VARIANT: CD73 IC50
PROPERTY_LABEL: IC50

Answered examples (10):
COMPOUND: O=C(NC1CCCC1)O[C@@H]1CCN(c2cn[nH]c(=O)c2Cl)C1
TARGET_OR_SYSTEM: human CD73 (Homo sapiens, UniProt P21589)
TEST_RESULT: 0.001 to 10 µM

COMPOUND: NC1CCC(NC(=O)O[C@@H]2CCN(c3cn[nH]c(=O)c3Cl)C2)CC1 (some centres unmarked)
TARGET_OR_SYSTEM: human CD73 (Homo sapiens, UniProt P21589)
TEST_RESULT: 0.001 to 10 µM

COMPOUND: CC1(NC(=O)c2ccccc2)CCC(NC(=O)O[C@@H]2CCN(c3cn[nH]c(=O)c3Cl)C2)CC1 (some centres unmarked)
TARGET_OR_SYSTEM: human CD73 (Homo sapiens, UniProt P21589)
TEST_RESULT: 0.001 to 10 µM

COMPOUND: O=C(N[C@H]1CCCOC1)O[C@@H]1CCN(c2cn[nH]c(=O)c2Cl)C1
TARGET_OR_SYSTEM: human CD73 (Homo sapiens, UniProt P21589)
TEST_RESULT: 0.001 to 10 µM

COMPOUND: O=C(N[C@@H]1CC[C@H](NS(=O)(=O)c2ccccc2F)C1)O[C@@H]1CCN(c2cn[nH]c(=O)c2Cl)C1
TARGET_OR_SYSTEM: human CD73 (Homo sapiens, UniProt P21589)
TEST_RESULT: 0.001 to 10 µM

COMPOUND: O=C(NC1(C(F)(F)F)CCCC1)O[C@@H]1CCN(c2cn[nH]c(=O)c2Cl)C1
TARGET_OR_SYSTEM: human CD73 (Homo sapiens, UniProt P21589)
TEST_RESULT: 0.001 to 10 µM

COMPOUND: O=C(NC1CCCC1)O[C@H]1CCN(c2cn[nH]c(=O)c2Cl)C1
TARGET_OR_SYSTEM: human CD73 (Homo sapiens, UniProt P21589)
TEST_RESULT: 10 to 100 µM

COMPOUND: O=C(N[C@H]1CC[C@H](NC(=O)c2c(F)cccc2F)CC1)O[C@@H]1CCN(c2cn[nH]c(=O)c2Cl)C1
TARGET_OR_SYSTEM: human CD73 (Homo sapiens, UniProt P21589)
TEST_RESULT: 0.001 to 10 µM

COMPOUND: CN1CC(NC(=O)O[C@@H]2CCN(c3cn[nH]c(=O)c3Cl)C2)CC1=O (some centres unmarked)
TARGET_OR_SYSTEM: human CD73 (Homo sapiens, UniProt P21589)
TEST_RESULT: 0.001 to 10 µM

COMPOUND: CC(C)(C)C(=O)N[C@H]1CC[C@@H](NC(=O)O[C@@H]2CCN(c3cn[nH]c(=O)c3Cl)C2)CC1
TARGET_OR_SYSTEM: human CD73 (Homo sapiens, UniProt P21589)
TEST_RESULT: 0.001 to 10 µM

Form field: reported IC50 of O=C(N[C@@H]1CC[C@H](NC(=O)c2ccccc2)C1)O[C@@H]1CCN(c2cn[nH]c(=O)c2Cl)C1
0.001 to 10 µM

Please do the same for CN1CCN(S(=O)(=O)N[C@H]2CC[C@H](NC(=O)O[C@@H]3CCN(c4cn[nH]c(=O)c4Cl)C3)CC2)CC1 as well.
0.001 to 10 µM
